These measurements were taken from patent US8541573B2.

# assayedSystem: B1R of rats (Rattus norvegicus)
# Construct: expressed in transfected cells; host or cells: CHO K1 cells
# Sequence (P97583 1-337): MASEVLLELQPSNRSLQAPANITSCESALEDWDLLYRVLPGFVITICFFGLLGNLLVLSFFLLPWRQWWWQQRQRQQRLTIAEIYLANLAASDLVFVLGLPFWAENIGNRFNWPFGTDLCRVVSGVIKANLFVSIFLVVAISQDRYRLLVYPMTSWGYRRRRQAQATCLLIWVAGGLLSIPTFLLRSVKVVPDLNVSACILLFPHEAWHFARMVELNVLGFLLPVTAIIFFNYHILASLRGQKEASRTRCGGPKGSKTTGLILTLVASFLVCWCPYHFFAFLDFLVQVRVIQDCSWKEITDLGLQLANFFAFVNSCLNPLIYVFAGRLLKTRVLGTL
# assayComment: Functional investigation on the bradykinin 1 receptor (B1R), cell-based fluorescent calcium-mobilization assay (FLIPR/Novostar), rat
# experimentalSetup: 10 μM test substance; CHO K1 cells stably transfected with rat B1R gene; agonist Des-Arg9-bradykinin at EC80; % inhibition compared with maximum achievable inhibition; read-out: B1R antagonism, rat [10 μM] % inhibition
Consider the following molecules; for each one, report its inhibition at 10 µM.
Report the value in % with no unit label.

Short answer on B1R of rats (Rattus norvegicus) for "COc1cc(C)c(S(=O)(=O)N2c3ccccc3C[C@H]2COCC(=O)N2CCC(CNC(=O)c3ccncc3)(N3CCN(C4CC4)CC3)CC2)c(C)c1" , inhibition at 10 µM: 102

Short answer on B1R of rats (Rattus norvegicus) for "COc1cc(C)c(S(=O)(=O)N(C)CCOCC(=O)N2CCC(CNC(=O)c3ccccc3)(N3CCN(C)CC3)CC2)c(C)c1" , inhibition at 10 µM: 101

Short answer on B1R of rats (Rattus norvegicus) for CN1CCN(C2(CNC(=O)c3ccncc3)CCN(C(=O)COCC3CCc4ccccc4N3S(=O)(=O)c3ccc(Cl)c(Cl)c3)CC2)CC1 (centres unmarked) , inhibition at 10 µM: 80

Short answer on B1R of rats (Rattus norvegicus) for "O=C(NCC1(N2CCN(C3CC3)CC2)CCN(C(=O)COCCN(C2CC2)S(=O)(=O)c2ccccc2C(F)(F)F)CC1)c1ccncc1" , inhibition at 10 µM: 99

Short answer on B1R of rats (Rattus norvegicus) for CN1CCN(C2(CNC(=O)c3ccccc3)CCN(C(=O)COCC3CCc4ccccc4N3S(=O)(=O)c3ccc(Cl)c(Cl)c3)CC2)CC1 (centres unmarked) , inhibition at 10 µM: 54

Short answer on B1R of rats (Rattus norvegicus) for COc1cc(C)c(S(=O)(=O)N2c3ccccc3OCC2COCC(=O)N2CCC(CNC(=O)c3ccncc3)(N3CCN(C)CC3)CC2)c(C)c1 (centres unmarked) , inhibition at 10 µM: 102

Short answer on B1R of rats (Rattus norvegicus) for Cc1cc(S(=O)(=O)N2CCCCC2CCC(=O)N2CCC(CNC(=O)c3ccccn3)(N3CCN(C)CC3)CC2)c(C)cc1Cl (centres unmarked) , inhibition at 10 µM: 11

Short answer on B1R of rats (Rattus norvegicus) for CN1CCN(C2(CNC(=O)c3cccnc3)CCN(C(=O)CC(NS(=O)(=O)c3ccc4ccccc4c3)c3ccccc3)CC2)CC1 (centres unmarked) , inhibition at 10 µM: 73

Short answer on B1R of rats (Rattus norvegicus) for Cc1cc(S(=O)(=O)N2CCCCC2CCC(=O)N2CCC(CNC(=O)c3ccncc3)(N3CCN(C)CC3)CC2)c(C)cc1Cl (centres unmarked) , inhibition at 10 µM: 45

Short answer on B1R of rats (Rattus norvegicus) for CC(=O)NCC1(N2CCN(c3ccncc3)CC2)CCN(C(=O)CC(NS(=O)(=O)c2ccc3ccccc3c2)c2ccccc2)CC1 (centres unmarked) , inhibition at 10 µM: 82

Short answer on B1R of rats (Rattus norvegicus) for Cc1cc(S(=O)(=O)N2CCCCC2CCC(=O)N2CCC(CNC(=O)c3ccccc3)(N3CCN(C)CC3)CC2)c(C)cc1Cl (centres unmarked) , inhibition at 10 µM: 24

Short answer on B1R of rats (Rattus norvegicus) for CN1CCN(C2(CNC(=O)Cc3ccccc3)CCN(C(=O)COCC3CCc4ccccc4N3S(=O)(=O)c3ccc(Cl)c(Cl)c3)CC2)CC1 (centres unmarked) , inhibition at 10 µM: 52

Short answer on B1R of rats (Rattus norvegicus) for "COc1cc(C)c(S(=O)(=O)N(CCOCC(=O)N2CCC(CN3Cc4ccccc4C3=O)(N3CCN(C4CC4)CC3)CC2)C2CC2)c(C)c1" , inhibition at 10 µM: 96

Short answer on B1R of rats (Rattus norvegicus) for CC(=O)NCC1(N2CCN(c3ccncc3)CC2)CCN(C(=O)COCC2CCc3ccccc3N2S(=O)(=O)c2ccc(Cl)c(Cl)c2)CC1 (centres unmarked) , inhibition at 10 µM: 101

----------
# assayedSystem: human B1R (Homo sapiens, UniProt P46663)
# Construct: expressed in transfected cells; host or cells: CHO K1 cells
# Sequence (P46663 whole entry): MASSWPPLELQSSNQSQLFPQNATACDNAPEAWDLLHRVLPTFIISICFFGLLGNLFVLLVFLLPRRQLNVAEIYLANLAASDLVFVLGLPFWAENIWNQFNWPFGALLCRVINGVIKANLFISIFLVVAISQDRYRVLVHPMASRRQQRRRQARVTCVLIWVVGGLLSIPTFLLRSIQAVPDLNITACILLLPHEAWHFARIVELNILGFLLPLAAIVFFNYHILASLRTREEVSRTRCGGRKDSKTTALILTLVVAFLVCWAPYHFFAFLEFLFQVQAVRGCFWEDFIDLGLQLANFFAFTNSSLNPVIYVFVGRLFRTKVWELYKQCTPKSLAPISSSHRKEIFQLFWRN
# assayComment: Functional investigation on the bradykinin 1 receptor (B1R), cell-based fluorescent calcium-mobilization assay (FLIPR/Novostar), human
# experimentalSetup: 10 μM test substance; CHO K1 cells stably transfected with human B1R gene; agonist Lys-Des-Arg9-bradykinin at EC80; % inhibition compared with maximum achievable inhibition; read-out: B1R antagonism, human [10 μM] % inhibition
measuredProperty: inhibition at 10 µM
Could you give the number and then its unit, please?

Sure, the documented inhibition at 10 µM for CC(=O)NCC1(N2CCN(C)CC2)CCN(C(=O)COCC2CCc3ccccc3N2S(=O)(=O)c2ccc(Cl)c(Cl)c2)CC1 (stereo not drawn) is 102%

Sure, the documented inhibition at 10 µM for Cc1cc(S(=O)(=O)N2CCCCC2CCC(=O)N2CCC(CNC(=O)c3ccccc3)(N3CCN(C)CC3)CC2)c(C)cc1Cl (stereo not drawn) is 99%

Sure, the documented inhibition at 10 µM for "COc1cc(C)c(S(=O)(=O)N(CCOCC(=O)N2CCC(CN3Cc4ccccc4C3=O)(N3CCN(C4CC4)CC3)CC2)C2CC2)c(C)c1" is 97%

Sure, the documented inhibition at 10 µM for "COc1cc(C)c(S(=O)(=O)N(C)CCOCC(=O)N2CCC(CNC(=O)c3ccncc3)(N3CCN(C)CC3)CC2)c(C)c1" is 107%

Sure, the documented inhibition at 10 µM for "COc1cc(C)c(S(=O)(=O)N(C)CCOCC(=O)N2CCC(CNC(C)=O)(N3CCN(C)CC3)CC2)c(C)c1" is 103%

Sure, the documented inhibition at 10 µM for COc1cc(C)c(S(=O)(=O)N2CCCCC2COCC(=O)N2CCC(CNC(=O)c3ccncc3)(N3CCN(C)CC3)CC2)c(C)c1 (stereo not drawn) is 102%

Sure, the documented inhibition at 10 µM for "COc1cc(C)c(S(=O)(=O)N(C)CCOCC(=O)N2CCC(CNC(=O)c3cccnc3)(N3CCN(C)CC3)CC2)c(C)c1" is 104%

Sure, the documented inhibition at 10 µM for CN1CCN(C2(CNC(=O)c3ccccn3)CCN(C(=O)CC(NS(=O)(=O)c3ccc4ccccc4c3)c3ccccc3)CC2)CC1 (stereo not drawn) is 102%

Sure, the documented inhibition at 10 µM for Cc1cc(S(=O)(=O)N2CCCCC2CCC(=O)N2CCC(CNC(=O)c3ccccn3)(N3CCN(C)CC3)CC2)c(C)cc1Cl (stereo not drawn) is 99%

Sure, the documented inhibition at 10 µM for CC(=O)NCC1(N2CCN(C)CC2)CCN(C(=O)CC(NS(=O)(=O)c2ccc3ccccc3c2)c2ccccc2)CC1 (stereo not drawn) is 89%

Sure, the documented inhibition at 10 µM for CN1CCN(C2(CNC(=O)c3ccccn3)CCN(C(=O)COCC3CCc4ccccc4N3S(=O)(=O)c3ccc(Cl)c(Cl)c3)CC2)CC1 (stereo not drawn) is 91%

Sure, the documented inhibition at 10 µM for COc1cc(C)c(S(=O)(=O)N2CCCCC2COCC(=O)N2CCC(CNC(=O)c3ccccn3)(N3CCN(C)CC3)CC2)c(C)c1 (stereo not drawn) is 103%

Sure, the documented inhibition at 10 µM for CN1CCN(C2(CNC(=O)c3ccncc3)CCN(C(=O)COCC3CCc4ccccc4N3S(=O)(=O)c3ccc(Cl)c(Cl)c3)CC2)CC1 (stereo not drawn) is 100%

Sure, the documented inhibition at 10 µM for Cc1cccc(Cl)c1S(=O)(=O)N1c2ccccc2OCC1COCC(=O)N1CCC(CNC(=O)c2ccncc2)(N2CCN(C)CC2)CC1 (stereo not drawn) is 96%

Sure, the documented inhibition at 10 µM for CC(=O)NCC1(N2CCN(c3ccncc3)CC2)CCN(C(=O)CC(NS(=O)(=O)c2ccc3ccccc3c2)c2ccccc2)CC1 (stereo not drawn) is 100%
